Origin of measurements: patent US20200079793A1

Notes on IC50 obtained with Adenosine A2A Receptor (Homo sapiens, UniProt P29274).
Sequence (P29274 whole entry): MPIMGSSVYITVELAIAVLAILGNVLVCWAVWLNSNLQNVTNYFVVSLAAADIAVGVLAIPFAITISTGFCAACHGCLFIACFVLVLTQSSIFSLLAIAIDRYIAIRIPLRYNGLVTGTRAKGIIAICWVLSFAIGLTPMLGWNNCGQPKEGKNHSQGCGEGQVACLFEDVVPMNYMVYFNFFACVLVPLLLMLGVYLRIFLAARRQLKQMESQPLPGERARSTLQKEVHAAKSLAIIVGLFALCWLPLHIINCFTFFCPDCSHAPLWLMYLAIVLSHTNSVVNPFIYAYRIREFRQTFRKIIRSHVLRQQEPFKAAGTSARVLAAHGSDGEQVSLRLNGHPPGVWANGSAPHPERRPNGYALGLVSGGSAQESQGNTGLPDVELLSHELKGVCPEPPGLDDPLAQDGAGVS

itemSmiles: Cc1nc2nc(N[C@@H](C)c3cncc(F)c3)nc(C(=O)N3CC(NC(=O)C4CCCCC4)C3)c2s1
experimentalResult: < 100 nM
--
itemSmiles: Cc1nc2nc(N[C@@H](C)c3cncc(F)c3)nc(C(=O)N3CC[C@H](N)C3)c2s1
experimentalResult: > 1000 nM
--
itemSmiles: COC[C@@H]1CCN(C(=O)c2nc(N[C@@H](C)c3cncc(F)c3)nc3nc(C)sc23)C1
experimentalResult: > 1000 nM

Now turn to the next compound.
Query :: What is its IC50 for Adenosine A2A Receptor (Homo sapiens, UniProt P29274)? Entry: "Cc1nc2nc(N[C@@H](C)c3cncc(F)c3)nc(C(=O)NCc3cccnc3)c2s1"
Result :: 100 to 1000 nM
